Kindly supply the reported viability at 28.5 h, 10 µM values for the records listed here.
assay: in vitro; conditions: human, hela cells, % viability
Use % as the unit, but write only the number.

Field request: viability at 28.5 h, 10 µM | item: COc1ccc(CC(=O)NCc2nc(-c3ccc(OC)cc3)no2)cc1 [CBK270043]
92

Then what about the molecule Cc1cccc(C)c1NC(=O)CSCC(=O)Nc1ccc2ccccc2c1 [CBK263274] ?
94.2

Then what about the molecule Cc1cn(C(C)C(=O)N(C)C)nc1C1CCCCC1 (centres unmarked) [CBK016092] ?
113

Then what about the molecule COc1cccc(CNc2ccc(-c3nc4ncccc4o3)cc2)c1OC [CBK269716] ?
91

Then what about the molecule Cc1ccnc(SCC(=O)Nc2sc3c(c2C(=O)Nc2ccccc2)CCCC3)n1 [CBK266348] ?
106

----------
assay: in vitro; set-up: Viability of infected HeLa host cells, resazurin conversion, bulk resorufin fluorescence relative to DMSO; conditions: human, hela cells; bulk resorufin, mean of 2
Test Readout: viability at 28.5 h, 10 µM (%)
Use % as the unit, but write only the number.

Field request: viability at 28.5 h, 10 µM | item: COC(=O)CCc1ccc(-c2cnc(N)c(-c3ccc(O)cc3)n2)cc1 [CBK122809]
113

Then what about the compound O=C(Nc1ccc(F)cc1)c1[nH]c2ccccc2c1NS(=O)(=O)c1cc(Cl)sc1Cl [CBK050094] ?
86.9

Then what about the compound Nc1ncc(-c2ccc(C(=O)N3CCOCC3)cc2)cc1C(=O)NCc1ccc(Cl)c(Cl)c1 [CBK158570] ?
93.8

Then what about the compound Cc1c(OCc2cnn(-c3ccccc3)c2)ccc(-c2n[nH]c(C(F)(F)F)c2-c2ccccc2)c1O [CBK264962] ?
97

Then what about the compound O=S(=O)(Nc1ncccn1)c1ccc(NC(=S)Nc2ccc3c(c2)OCO3)cc1 [CBK267046] ?
119

Then what about the compound Cc1ccc(OCc2ccccc2)c(C(CCN(C(C)C)C(C)C)c2ccccc2)c1 (stereo not drawn) [CBK017906] ?
86

Then what about the compound CCOc1cc(/C=N/Nc2nnc(C)n2N)ccc1O [CBK027460] ?
87.4

Then what about the compound CN(C)CCCNC(=O)Nc1cccc(-c2nc(-c3ccc(C#N)cc3)cnc2N)c1 [CBK116287] ?
97.5

Then what about the compound O=C(Nc1ccc(S(=O)(=O)Nc2ncccn2)cc1)c1ccc2c(c1)OCCO2 [CBK268132] ?
95.2

----------
Kindly supply the reported viability at 28.5 h, 10 µM values for the records listed here.
experiment: in vitro; conditions: human, hela cells, % viability

Field request: viability at 28.5 h, 10 µM | item: CN1CCN(C(=O)c2n[nH]c3c2CCCC3)C(Cc2ccc(-c3cccs3)cc2)C1=O (stereo not shown) [CBK285812]
101%

Then what about the molecule Cc1ccc(C(=O)COC(=O)C(Cc2ccccc2)N2C(=O)c3cc(Cl)c(Cl)cc3C2=O)cc1 (stereo not shown) [CBK264176] ?
109%

Then what about the molecule Cc1csc2ncnc(N3CCN(C(=O)C4CC4)CC3)c12 [CBK023593] ?
112%

Then what about the molecule O=C(COc1cccc([N+](=O)[O-])c1)Nc1cc(C(=O)O)cc(C(=O)O)c1 [CBK263604] ?
114%

----------
assay: in vitro; details: human, hela cells, % viability
Test Readout: viability at 28.5 h, 10 µM (%)
Use % as the unit, but write only the number.

Field request: viability at 28.5 h, 10 µM | item: CCS(=O)(=O)c1ccc2oc([C@H]3CCN(C(=O)C4CCCCC4)C3)nc2c1
104

Then what about the molecule O=c1[nH]c2ncc(-c3ccoc3)nc2n1Cc1ccco1 ?
102

Then what about the molecule O=C(NC1(c2ccccc2)CC1)c1ccc(-n2cnnc2)cc1 ?
111

Then what about the molecule CC(C)c1nnc(NC(=O)CC2CCN(C(=O)C3(c4ccccc4)CCCC3)CC2)s1 ?
94.9

Then what about the molecule Cc1ccnn1CCC(=O)N1CCCC1c1nc2ccccc2[nH]1 (stereo not shown) ?
110

Then what about the molecule S=C1NCN(Cc2ccc3c(c2)OCO3)CN1 ?
87.1

Then what about the molecule O=C(CCn1cnc2ccccc21)N1CCC(c2ccncc2)CC1 ?
102

Then what about the molecule COC(=O)[C@@H]1CN(C(=O)C2CCCC2)CCN1C(=O)c1cccs1 ?
93.5

Then what about the molecule O=C1CC2(CCN(C(=O)c3ccccn3)CC2)Oc2ccc(Br)cc21 ?
93.7

Then what about the molecule Cc1ccc(OCC(O)CN2CCN(c3nc(-c4ccccc4)ns3)CC2)c([N+](=O)[O-])c1 (stereo not shown) ?
95.3

Then what about the molecule O=C(NCc1cccs1)c1cnoc1-c1ccc([N+](=O)[O-])cc1 ?
82.9

Then what about the molecule O=C(c1cscn1)N1CCCCC1c1nc2ccccc2[nH]1 (stereo not shown) ?
91

Then what about the molecule COc1ccc(NS(=O)(=O)c2cc(C(=O)O)sc2Br)cn1 ?
81.8

Then what about the molecule COc1cccc(NC(=O)c2ccc(N(C)Cc3ccccc3)c([N+](=O)[O-])c2)c1 ?
95.1

Then what about the molecule Clc1ccc(COc2nccnc2OCc2cccnc2)cc1Cl ?
85

Then what about the molecule O=C(O)c1c2c(nc3ccccc13)CCN(Cc1ccccc1)C2 ?
87.4

Then what about the molecule O=C(Nc1ccc(Cl)cc1)N1CCN(CCCCc2ccc(F)cc2)CC1 [CBK017951C] ?
111

Then what about the molecule COc1ccc(N2C(=O)CC(NCCNc3ccc([N+](=O)[O-])cn3)C2=O)cc1 (stereo not shown) ?
85.3

Then what about the molecule CC1CCc2nn(CCNC(=O)Cc3ccc(F)cc3)c(=O)cc2C1 (stereo not shown) ?
92.5

----------
assay: in vitro; conditions: human, hela cells, % viability
Kindly supply the reported viability at 28.5 h, 10 µM values for the records listed here.
Please append the unit to your numeric answer.

Field request: viability at 28.5 h, 10 µM | item: C=Cn1ncc(CN2CCCC(O)(c3ccc(F)cc3)CC2)c1C (centres unmarked)
89.3%

Then what about the compound O=C(COC(=O)c1cc(S(=O)(=O)N2CCCCC2)c(Cl)cc1Cl)c1ccccc1 ?
101%

Then what about the compound COc1ccc(CNC(=O)C2CCCN(S(=O)(=O)c3cccs3)C2)cc1 (centres unmarked) ?
95.8%

Then what about the compound CC(C)c1ccc(NC(=O)O[C@@H]2CO[C@H]3[C@@H]2OC[C@@H]3NC(=O)c2cncnc2)cc1 ?
105%

Then what about the compound CCN(CC)C(=O)c1c(NS(=O)(=O)c2ccc(C)cc2)sc2c1CCCC2 ?
111%

Then what about the compound Cc1c(-c2ccnc(N)n2)nnn1-c1ccc(Cl)cc1Cl ?
65.5%

Then what about the compound COc1ccc(S(=O)(=O)N2CCN(CCN3C(=O)c4cccc5cccc(c45)C3=O)CC2)cc1[N+](=O)[O-] ?
102%

Then what about the compound O=C(O)c1cc(NC(=O)c2ccco2)cc(NC(=O)c2ccco2)c1 ?
91.8%

Then what about the compound O=C(O)CCN1CCN(S(=O)(=O)c2ccccc2)CC1 ?
106%

Then what about the compound CCOC(=O)c1ccc(S(=O)(=O)N2CCCCC2)cc1 ?
106%

Then what about the compound CNC(=O)[C@@H]1CN(Cc2ccccc2)C[C@H]1C(=O)c1ccc(F)cc1 ?
110%

Then what about the compound CSCCCNC(=O)N1CCCCC1CO (centres unmarked) ?
108%

Then what about the compound O=C1N[C@@H]2CCN(CC(=O)N3CCCC3)C[C@@H]2CCCCCOc2ccccc21 ?
107%

Then what about the compound Cc1nc2c(OCCOc3ccc(F)cc3)cccn2c1N(C)C(=O)CCC1CCCC1 ?
103%

Then what about the compound O=C(O)CC1SC(Nc2ccccc2F)=NC1=O (centres unmarked) ?
94.9%

Then what about the compound OCc1nc2cc3cn[nH]c3cc2[nH]1 ?
86.5%

Then what about the compound O=C(NCC1CC1)c1ccc(N2CCN(C(=O)c3ccccc3C(F)(F)F)CC2)nn1 ?
111%

Then what about the compound O=C(Nc1ccc([C@@H](O)[C@H]2COCC(=O)N2Cc2cccnc2)cc1)c1ccccc1 ?
111%

Then what about the compound Cc1cc(-c2ccc(=O)n(CCNC(=O)C3CCCCC3)n2)c(C)o1 ?
95.7%

Then what about the compound Nc1nc(SCc2nnc(S)n2-c2ccccc2)nc2sc3c(c12)CCC3 [CBK301216K] ?
83.1%

Then what about the compound CN(C)CC(C)(C)CNC=C1C(=O)CC(C)(C)CC1=O ?
99.9%

Then what about the compound CCOc1ccc(CN(Cc2cc(=O)n3nc(-c4ccccc4)sc3n2)CC(C)C)cc1 ?
103%

Then what about the compound Cn1nccc1CNCc1c(Br)cc(F)c(F)c1N1CCCCC1 ?
92.8%

Then what about the compound NC(=O)CCNC(=O)C1(c2ccccc2)CCCC1 ?
104%

Then what about the compound COc1ccc(-c2cnn(-c3ccccc3CN(C)C)n2)cc1 ?
106%

Then what about the compound O=c1cc(N2CCCCC2)cnn1Cc1nccn1C1CC1 ?
89.6%

Then what about the compound O=C(C1CC1)N1CCC[C@H](Cn2nc(-c3cccs3)ccc2=O)C1 ?
74.7%

Then what about the compound Oc1ccc(-n2ncc(-c3cccc(C(F)(F)F)c3)n2)cc1 ?
99.9%

Then what about the compound OCCN1CCN(Cc2nc(O)c3ccccc3n2)CC1 ?
98.5%

Then what about the compound Cc1cc(C)c(NC(=O)CSc2nnc(Cc3ccccc3)n2C)c(C)c1 ?
110%

Then what about the compound Cc1nc(NS(=O)(=O)c2cc(F)c(Br)cc2F)sc1C(=O)O ?
96.5%

Then what about the compound N#Cc1ccc(C(=O)Nc2cncc(OC3CCNCC3)n2)cc1 [CBK036371T] ?
90.6%

Then what about the compound COc1ccc(CNC(=O)c2cc(S(=O)(=O)N3CCCC3)cn2C)cc1 ?
95.2%

Then what about the compound Cc1sc(NC(=O)c2ccc3c(c2)OCCO3)c(C(=O)NCc2cccnc2)c1C ?
90.8%

Then what about the compound COc1ccc(C(=O)OC(C)(C)C)c(-c2cncc(N3CCN(CCO)CC3)n2)c1 ?
101%

Then what about the compound O=C(O)c1ccc(N2CCN(CCO)CC2)c([N+](=O)[O-])c1 [CBK264911C] ?
100%

Then what about the compound Cc1cccc(N2CCN(C(=O)CCc3ccsc3)C(C)C2)n1 (centres unmarked) ?
96.6%

Then what about the compound COc1cc(-c2cnc(N)c(N3CCC(C(=O)O)CC3)n2)cc(OC)c1OC ?
98.9%
